test system: Rattus norvegicus; test: The compound was tested for percent change in immune R16 inflammatory lesions in rat adjuvant-induced arthritis at 50 mg/kg; type: functional
Exercise: state measured Change for each of the compounds provided.
Give the number; % is assumed, so skip it.

Can you look up the measured Change of C[S+]([O-])c1ccc(-c2nc3n(c2-c2ccc([S+](C)[O-])cc2)CC[S+]3[O-])cc1 (stereo not given) for me? -47

What does the data say about its Change? Entry: COc1ccc(-c2nc3n(c2-c2ccc(OC)cc2)CC[S+]3[O-])cc1 (stereo not given) -32

Would you mind telling me what Change value was observed for `O=S1(=O)CCn2c1nc(-c1ccc(F)cc1)c2-c1ccc(F)cc1` ? -34

What value of measured Change is listed for COc1ccc(-c2c(-c3ccc(F)cc3)nc3n2CC[S+]3[O-])cc1 (stereo not given) ? -39

Report Change for `CC(=O)Nc1ccc(-c2nc3n(c2-c2ccc(NC(C)=O)cc2)CCS3)cc1` please. 12

---

Please provide measured Change for the entries that follow.
tested on: Rattus norvegicus; assay: Compound was tested by carrageenan -induced paw edema for percent change in paw volume of control sham operated rats at 50 mg/kg.; assay type: functional
Answer with a number only, understood to be in %.

Item `Cl.Fc1ccc(-c2nc3n(c2-c2ccc(F)cc2)CCS3)cc1` has what recorded Change? -9

Give its Change value. Item: `c1ccc(-c2nc3n(c2-c2ccccc2)CCS3)cc1` -9

If you can, please state the reported Change value of `COc1ccc(-c2nc3n(c2-c2ccc(OC)cc2)CCS3)cc1` . -63

Which Change is reported for this compound? `CSc1ccc(-c2nc3n(c2-c2ccc(SC)cc2)CCS3)cc1` -33

---

species: Mus musculus; test: Immunoregulatory activity against oxazolone induced mouse contact sensitivity was evaluated as percent change; type: functional
recorded_endpoint: Change
Note to self: number, then unit, no commentary.

# query: Change of entry COc1ccc(-c2c(-c3ccc(F)cc3)nc3n2CC[S+]3[O-])cc1 (centres undefined) 65%

Param item = COc1cccc(-c2nc3n(c2-c2cccc(OC)c2)CC[S+]3[O-])c1 (centres undefined) ; retrieve measured Change. 59%

Could you share which Change value was measured for `COc1ccc(-c2nc3n(c2-c2ccc(OC)cc2)CCS3(=O)=O)cc1` ? 95%

Look up Change for this compound: `O=S1(=O)CCn2c1nc(-c1ccc(F)cc1)c2-c1ccc(F)cc1` 20%

---

Please respond with reported Change for every item in the list.
tested on: Rattus norvegicus; experiment: Percent change in immune R16 inflammatory lesions in rat adjuvant-induced arthritis at 50 mg/kg; format: functional
Show the value, then the unit it is measured in.

Requested read-out: Change. Entry: `Clc1ccc(-c2nc3n(c2-c2ccc(Cl)cc2)CCS3)cc1` -38%

Look at this molecule and give its reported Change. `Oc1ccc(-c2nc3n(c2-c2ccc(O)cc2)CCS3)cc1` 9%

Which value of Change has been reported for `CCCCOc1ccc(-c2nc3n(c2-c2ccc(OCCCC)cc2)CCS3)cc1` in the records? 2%

What does the data say about its Change? Entry: `Cc1ccc(-c2nc3n(c2-c2ccc(C)cc2)CCS3)cc1` -7%

GET /values?readout=Change&item= `CCSc1nc(-c2ccc(OC)cc2)c(-c2ccc(OC)cc2)n1CC` -8%

Which Change is listed for `CSc1ccc(-c2nc3n(c2-c2ccc(SC)cc2)CCS3)cc1` ? -38%

I am curious: what Change value has been reported for `COc1ccc(-c2nc3n(c2-c2ccc(OC)cc2)C(=O)CS3)cc1` ? 0%

Any idea what its Change is? The molecule is `COc1cc(-c2nc3n(c2-c2cc(OC)c(OC)c(OC)c2)CCS3)cc(OC)c1OC` -19%

// Change lookup, key: `c1ccc(-c2nc3n(c2-c2ccccc2)CCS3)cc1` -4%

Please report the recorded Change for `c1cc2c(cc1-c1nc3n(c1-c1ccc4c(c1)OCO4)CCS3)OCO2` . -27%

Need Change, item `c1ccc2c(c1)nc1n2CCS1` 7%

What does the data say about its Change? Entry: `Cc1cccc(-c2nc3n(c2-c2cccc(C)c2)CCS3)c1` -5%

Form field: reported Change of `C=CCOc1ccc(-c2nc3n(c2-c2ccc(OCC=C)cc2)CCS3)cc1` -21%

Return reported Change; argument: `COc1ccc(-c2c(-c3ccccc3)nc3n2CCS3)cc1OC` 11%

Reported Change, molecule `COc1ccc(-c2nc(SC)[nH]c2-c2ccc(OC)cc2)cc1` : ____ -38%

// query Change value for entry `COc1ccc(-c2nc3n(c2-c2ccc(OC)cc2)CCCS3)cc1` -20%

Fill in: Change of `CCN(C(C)=O)c1ccc(-c2nc3n(c2-c2ccc(N(CC)C(C)=O)cc2)CCS3)cc1` is ___ -10%

# query: Change of entry C[S+]([O-])c1ccc(-c2nc3n(c2-c2ccc([S+](C)[O-])cc2)CCS3)cc1 (stereo not drawn) -19%

I have this molecule here, `COc1ccc(-c2nc3n(c2-c2ccc(F)cc2)CCS3)cc1` , and I need its recorded Change. 6%

What value of Change has been reported for the following molecule? `COc1ccc(-c2c(-c3ccccc3)nc3n2CCS3)cc1` -6%

Tell me the measured Change of `COc1ccc(-c2nc3n(c2-c2ccc(OC)c(C)c2)CCS3)cc1C` , please. -19%

What value of Change has been recorded for this entry: `FC(F)(F)c1ccc(-c2nc3n(c2-c2ccc(C(F)(F)F)cc2)CCS3)cc1` 1%

Find the recorded Change belonging to `COc1ccc(-c2cn3c(n2)SCC3)cc1` and report it. -16%
